Catalogue of molecules with associated solubility
assay: physchem; conditions: fasted state simulated intestinal fluid (FaSSIF), 25 °C, fassif, thermodynamic from solid
Reply with just the number (in µg/mL).

Recorded solubility, per entry:
| molecule | propertyLabel | measValue |
| --- | --- | --- |
| C[C@H](N)C(=O)N(c1nn(CC(F)(F)F)c2c(-c3ccc(C#CC(C)(C)S(C)(=O)=O)nc3[C@H](Cc3cc(F)cc(F)c3)NC(=O)Cn3nc(C(F)(F)F)c4c3C(F)(F)[C@@H]3C[C@H]43)ccc(Cl)c12)S(C)(=O)=O [Compound 18] | solubility | 0.5 |
| CN(C(=O)N(c1nn(CC(F)(F)F)c2c(-c3ccc(C#CC(C)(C)S(C)(=O)=O)nc3[C@H](Cc3cc(F)cc(F)c3)NC(=O)Cn3nc(C(F)(F)F)c4c3C(F)(F)[C@@H]3C[C@H]43)ccc(Cl)c12)S(C)(=O)=O)c1ncc(C(=O)O)cc1COP(=O)(O)O [Compound 62] | solubility | 490 |

**Q:** For the molecule CC(C)(C#Cc1ccc(-c2ccc(Cl)c3c(NS(C)(=O)=O)nn(CC(F)(F)F)c23)c([C@H](Cc2cc(F)cc(F)c2)NC(=O)Cn2nc(C(F)(F)F)c3c2C(F)(F)[C@@H]2C[C@H]32)n1)S(C)(=O)=O [Intermediate 5, reference compound] , report solubility.
**A:** 4

Recorded values, source patent US11787825B2.
